# Target Under Test: Histone deacetylase 1 (Homo sapiens, UniProt Q13547)
# Sequence (Q13547 whole entry): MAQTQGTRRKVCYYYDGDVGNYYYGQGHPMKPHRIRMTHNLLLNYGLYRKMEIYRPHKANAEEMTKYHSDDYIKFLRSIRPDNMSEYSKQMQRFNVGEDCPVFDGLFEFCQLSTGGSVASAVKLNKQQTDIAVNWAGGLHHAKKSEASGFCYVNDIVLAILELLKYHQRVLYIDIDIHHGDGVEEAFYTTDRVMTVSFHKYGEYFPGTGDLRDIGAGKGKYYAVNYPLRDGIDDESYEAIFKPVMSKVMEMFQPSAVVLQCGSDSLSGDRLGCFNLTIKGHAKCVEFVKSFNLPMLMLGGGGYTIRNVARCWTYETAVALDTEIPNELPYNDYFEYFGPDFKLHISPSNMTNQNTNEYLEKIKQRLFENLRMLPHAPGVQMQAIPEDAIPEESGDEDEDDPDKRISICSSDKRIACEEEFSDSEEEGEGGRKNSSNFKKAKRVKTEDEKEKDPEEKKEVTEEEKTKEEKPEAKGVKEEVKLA
# Method: Inhibition of recombinant HDAC1 expressed in HEK293 cells
Each entry below carries its reported pIC50.
Note on pIC50: it is the negative log10 of concentration, concentration in mol/L.

Completed entries (count: 2):
- Smiles Repr: "CCSC(=S)SCC(=O)c1cccc(NC(=O)c2cccnc2)c1"
  pIC50: 6.41
- Smiles Repr: "CCSC(=S)SCC(=O)c1ccc(NC(=O)c2ccccc2)cc1"
  pIC50: 4.98

Fill blank: measured pIC50 of the compound CCSC(=S)SCC(=O)c1ccc(CC(=O)NCCOc2ccccc2)s1 is ____.
6.41

* * *

# Target Under Test: Histone deacetylase
# Method: Inhibition of HDAC in human HeLa cells
# Assay type: cell-based
Item-by-item account of IC50
Unit nM implied. Number only.

Answered cases to consult:
- Smiles Repr: "COc1ccc(C(=O)CSC(=S)SCCNC(C)=O)cc1"
  IC50 [nM]: 3470
- Smiles Repr: "CCSC(=S)SCC(=O)c1ccc(-c2ccc(CNc3cnc4ccccc4c3)cn2)s1"
  IC50 [nM]: 683

Please state recorded IC50 (tested on Histone deacetylase) of CCSC(=S)SCC(=O)c1ccc(CC(=O)NCc2ccccc2)s1
9840

Same question, CCSC(=S)SCC(=O)c1ccc(C(=O)Nc2ccccc2)cc1 this time
1110

* * *

# Target Under Test: Histone deacetylase
# Method: Inhibition of nuclear HDAC isolated from human HeLa cells
# Format: cell-based
Endpoint Name: IC50 (µM)
Express your answer in µM, writing the number without its unit.

- Smiles Repr: "CCSC(=S)SCC(=O)c1ccc(NC(=O)Nc2ccccc2)cc1"
  Target Under Test: "Histone deacetylase"
  IC50, µM: 0.04

Short answer please: IC50, Histone deacetylase, entry CCSC(=S)SCC(=O)c1cccc(C(=O)Nc2ccccc2)c1
0.124

Continue with CCSC(=S)SCC(=O)c1ccc(S(=O)(=O)Nc2ccc(OC)cc2)cc1
0.016

* * *

# Target Under Test: Histone deacetylase
# Method: Inhibition of HDAC in human HeLa cells
# Type: cell-based
The entries below are paired with their reported log10 of IC50.
Response schema: value (number) is log10 of IC50 in units of µM.

- Smiles Repr: "CCSC(=S)SCC(=O)c1cccc(NC(=O)c2cnc3ccccc3c2)c1"
  Endpoint Name: "log10 of IC50"
  Observed Result: -0.32
- Smiles Repr: "CCSC(=S)SCC(=O)c1cccc(CNC(C)=O)c1"
  Endpoint Name: "log10 of IC50"
  Observed Result: 0.83
- Smiles Repr: "CCOC(=S)SCC(=O)c1ccc(OC)cc1"
  Endpoint Name: "log10 of IC50"
  Observed Result: 0.67

Please look up its log10 of IC50: CCSC(=S)SCC(=O)c1ccc(C(=O)N[C@@H](C)c2ccccc2)s1
0.01

Input CCSC(=S)SCC(=O)c1ccc(NS(C)(=O)=O)cc1
0.95

Can you handle CCSC(=S)SCC(=O)c1ccc(NC(=O)c2ccccc2)cc1 next?
0.87

Next molecule: CCNC(=O)SCC(=O)c1ccc(OC)cc1
0.50

Would you kindly repeat that for CCOC(=S)SCC(=O)c1ccc(NC(C)=O)cc1 ?
1.42

CCSC(=S)SCC(=O)c1cccc(C(=O)Nc2ccccc2)c1 , same question.
0.09
